Origin of values: patent US20260258115A1

Assignment: determine reported Kd for the given binders.
Biological target: RSV prefusion F (preF), DS-Cav1 (Respiratory Syncytial Virus)
Experiment: BLI, IgG on anti-human IgG sensor, 100 nM antigen
Report as a plain number; the unit nM is understood.

Query: Using known records, supply Kd for ADI-41200 (antibody, V domains shown) VH: EVQLLESGGGLVKPGGSLRLSCAASGLTFSDHDMSWVRQAPGKGLEWVSGIGGSGSNTYYAGSVKGRFTISRDNSKNTLYLQMDSLRVEDTAVYYCAKDPYGDYRDYYGMDVWGQGTTVTVSS VL: DIVLTQTPFSLPVTPGEPASISCRSSQSLLKSNGYNYLDWFLQKPGQSPQLLIYLGSNRASGVPDRFSGSGSGTDFTLKISRVEAEDVGVYYCMQTLQALYTFGQGTKVEIK
Response: 0.334

Query: Please supply the value of reported Kd for the item ADI-41160 (antibody, V domains shown) VH: QVQLVQSGAEVKKPGSSVKVSCKASGGTFSSYPIIWVRQAPGQGLEWMGRIIPILGIASYAQKFQGRVTITADKSTSTAYMELSSLRSEDTAVYYCARNSDFYYGMDVWGQGTTVTVSS VL: QSALIQPASVSGSPGQSITISCTGTSSDVGGYNYVSWYQHHPGKAPKLMIYDVSNRPSGISNRFSGSKSGNTASLTISGLQAEDEADYYCSSYTSSSLYVFGTGTKVTVL
Response: 2.41

Query: Input ADI-41185 (antibody, V domains shown) VH: QVQLQQWGAGLLKPSETLSLTCAVYGGSFSSYYYSWIRQPPGKGLEWIGEINQSGSTNYNPSLKSRVTISVDTSKNEFSLKLSSVTAADTAVYYCARIVREFNTRWYDYYYMDVWGKGTTVTVSS VL: DIRVTQSPATLSLSPGERATLSCRTSQSISSSYLAWYQQKFGQAPRLLIYGASSRATGIPDRFSGSGSGTDFTLTISRLEPEDFAVYYCQQYGISPPMYTFGQGTKVEIK , output reported Kd.
Response: 3.23

Query: Write down Kd measured for item ADI-41227 (antibody, V domains shown) VH: RSSWCSVGAEVKKRGSSVKVSCKASGGTFGGYAVSWVRQAPGQGLEWMGGIIPMFYTTKYAQKLQGRVTITADESTNTAYMDLSSLTSDDTAIYFCAREWHLGRTAVTGTGAFLDAFDIWGQGTMVTVSS VL: SYELTQPPSVSEAPRQRVTISCSGSSSNIGNNAVNWYQQLPGKAPKLLIYYDDLLPSGVSDRFSGSKSGTSASLAISGLQSEDEADYYCSAWDDSLNGWVFGGGTKLTVL
Response: 4.62

Query: Complete the entry with Kd for ADI-41171 (antibody, V domains shown) VH: EVQLVESGPGLVKPSQTLSLTCTVSGGSISSGGDYWSWVRQRPGKGLEWIGYIYNSGSGYYNPSLKNRVSMSMHTSRNQFSLRLSSVTAADTAFYYCARDPFYRSGGIHYFDYWGQGALVTVSS VL: DIVLTQTPGTLSLSPGEGATLSCRASPSVGSTSLAWYQQKPGQAPRLLIYGASSRATGIPDRFSGSGSGTDFTLTISRLEPEDFAVYYCQQDGGLPITFGLGTRLEIK
Response: 9.8

Query: Annotate the binder ADI-41144 (antibody, V domains shown) VH: EVQLVQSGAEVKKPGGSVKVSCKASGYTFSEYYMHWVRQAPGQGPEWVGRINPKSGRTNYAQNFQGRVTMTRDRSISTVYMDLSRLRSDDTAVYYCARWEVMDYGSGIYYNQDHFDYWGQGTLVTVSS VL: DIRVTQSPSSLSASVGDRVTITCRASQDITNYLAWFQQKPGKAPKSLMYAASTLQSGVPSRFSGSGSGTDFTLTISSLQPEDFATYYCQQYKTYPITFGQGTRLEIK with its measured Kd.
Response: 0.94

Query: Please report Kd for the following binder: ADI-41233 (antibody, V domains shown) VH: EVQLLESGGGLVKPGGSLRLSCAASGFIFRDYYMIWIRQAPGKGLEWVSYISSSSTYTNNADSVKGRFTISRDNAKNSLYLQMNSLRAEDTAVYYCARLFASRSDGAFDIWGQGTTVTVSS VL: QSVLTQPPSVSGAPGQRVTISCTGSSSNIGAGYDVHWYQQLPETAPKLLIYDNNNRPSGVPDRFSGSKSGTSASLAITGLQAEDEADYYCQSYDSSLSGYVFGTGTTVTVL
Response: 1.06
